Assayed target: T1, human vascular endothelial growth factor receptor-2 Fc chimera (KDR-Fc) (human, UniProt P35968 20-764)
T1 construct: range 1-764; also called human VEGFR-2; VEGF-R2-Fc; not shown: human IgG1 Fc
T1 sequence (P35968 20-764 limits assumed, change not shown, form in doubt): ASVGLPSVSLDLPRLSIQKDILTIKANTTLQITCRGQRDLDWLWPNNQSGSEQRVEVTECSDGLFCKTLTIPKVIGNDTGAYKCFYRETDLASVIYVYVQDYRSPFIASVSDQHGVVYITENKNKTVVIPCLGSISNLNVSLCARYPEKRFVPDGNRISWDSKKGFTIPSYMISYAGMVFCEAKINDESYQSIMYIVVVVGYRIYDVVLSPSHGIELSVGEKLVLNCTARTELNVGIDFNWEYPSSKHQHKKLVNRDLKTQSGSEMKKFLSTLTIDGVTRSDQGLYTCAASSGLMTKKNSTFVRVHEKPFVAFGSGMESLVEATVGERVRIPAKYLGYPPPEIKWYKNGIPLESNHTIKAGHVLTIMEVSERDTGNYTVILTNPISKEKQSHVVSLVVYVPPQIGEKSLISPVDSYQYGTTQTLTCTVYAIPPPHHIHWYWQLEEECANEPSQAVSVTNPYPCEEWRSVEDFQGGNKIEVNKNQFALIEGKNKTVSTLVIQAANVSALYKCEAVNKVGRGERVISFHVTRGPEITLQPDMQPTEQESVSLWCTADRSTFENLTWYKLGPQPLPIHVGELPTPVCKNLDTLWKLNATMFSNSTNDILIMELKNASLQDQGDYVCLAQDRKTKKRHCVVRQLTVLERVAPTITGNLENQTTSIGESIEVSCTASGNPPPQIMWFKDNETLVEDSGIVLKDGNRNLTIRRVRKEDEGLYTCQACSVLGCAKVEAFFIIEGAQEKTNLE
Method description: radioactive equilibrium binding, KDR-Fc
Would you kindly list pKd for each of these binders?
Value format note: pKd is -log10 of concentration (mol/L); just state the number.

Exercise: Consider the binder K7 (designed binder, Del 1-8) EVVAATPTSLLISWRHPHFPTRYYRITYGETGGNSPVQEFTVPLQPPTATISGLKPGVDYTITGYAVTSGHNDHMLMIPISINYRT and give its recorded pKd.
Solution: 8.66

Exercise: Consider the binder K9 (designed binder, Del 1-8) EVVAATPTSLLISWRHPHFPTRYYRITYGETGGNSPVQEFTVPLQPPTATISGLKPGVDYTITGYAVTFGLYGKELLIPISINYRT and give its recorded pKd.
Solution: 8.74

Exercise: Consider the binder K1 (designed binder, Del 1-8) EVVAATPTSLLISWRHPHFPTRYYRITYGETGGNSPVQEFTVPLQPPTATISGLKPGVDYTITGYAVTMGLYGHELLTPISINYRT and give its recorded pKd.
Solution: 9.26

Exercise: Consider the binder K6 (designed binder, Del 1-8) EVVAATPTSLLISWRHPHFPTRYYRITYGETGGNSPVQEFTVPLQPPTATISGLKPGVDYTITGYAVTDGKDGRVLLTPISINYRT and give its recorded pKd.
Solution: 9.03

Exercise: Consider the binder K14 (designed binder, Del 1-8) EVVAATPTSLLISWRHPHFPTRYYRITYGETGGNSPVQEFTVPLQPPTATISGLKPGVDYTITGYAVTREENDHELLIPISINYRT and give its recorded pKd.
Solution: 9.24

Exercise: Consider the binder K13 (designed binder, Del 1-8; 246 used) EVVAATPTSLLISWRHPHFPTRYYRITYGETGGNSPVQEFTVPLQPPTATISGLKPGVDYTITGYAVTLALKGHELLTPISINYRT and give its recorded pKd.
Solution: 9.24

Exercise: Consider the binder K10 (designed binder, Del 1-8) EVVAATPTSLLISWRHPHFPTRYYRITYGETGGNSPVQEFTVPLQPPTATISGLKPGVDYTITGYAVTTGPNDRLLFVPISINYRT and give its recorded pKd.
Solution: 9.24

Exercise: Consider the binder K5 (designed binder, Del 1-8) EVVAATPTSLLISWRHPHFPTRYYRITYGETGGNSPVQEFTVPLQPPTATISGLKPGVDYTITGYAVTMGPNDNELLTPISINYRT and give its recorded pKd.
Solution: 8.81

Exercise: Consider the binder K15 (designed binder, Del 1-8) EVVAATPTSLLISWRHPHFPTRYYRITYGETGGNSPVQEFTVPLQPPTATISGLKPGVDYTITGYAVTEVHHDREIKTPISINYRT and give its recorded pKd.
Solution: 9.46

Exercise: Consider the binder K12 (designed binder, Del 1-8) EVVAATPTSLLISWRHPHFPTRYYRITYGETGGNSPVQEFTVPLQPPTATISGLKPGVDYTITGYAVTDVYNDHEIKTPISINYRT and give its recorded pKd.
Solution: 9.21
